measured_quantity: melting point

# count of solved cases: 4
| compound | result |
| --- | --- |
| OC(CN1CCNCC1)C(O)(c1ccccc1)C1CCCC1 (centres undefined) | 50 °C |
| O=CC(=O)c1ccc(Oc2cccc(C(F)(F)F)c2)cc1 | 73 to 80 °C |
| CCCC(O)(C=Cc1ccccc1)CC(=O)OC (centres undefined) | 43 °C |
| Cc1cc(C(=O)O)nc(-c2ccc([N+](=O)[O-])cc2)c1 | 216 to 219 °C |

Answer with the recorded melting point for the compound listed here: Cc1c(C)c2c(c(C)c1OC(=O)CCC(=O)O)CCC(C)(COc1ccc(CC3SC(=O)NC3=O)cc1)O2 (centres undefined)
197 to 202 °C

Give the reported melting point for this compound. CC(=O)c1cc2c(s1)CCCc1cc(=O)n(-c3ccc(Cl)cc3)nc1-2
164 to 166 °C

Tell me measured melting point for CCCCCCCCCCCCC1(Cc2cc(N=Nc3ccc([N+](=O)[O-])cc3[N+](=O)[O-])ccc2O)COCCOCC(C)(C)COCCOC1 please.
64 to 65 °C

Give recorded melting point. CCCC[C@H](NC(=O)[C@H](CC(C)C)NC(=O)c1ccccc1OC)C(=O)CSCc1ccco1
77 to 78 °C

For the compound CCOCc1nc2c(N)nc3cc(Br)ccc3c2n1CC1(O)CCCC1 , report melting point.
128 to 130 °C

Name the recorded melting point of the compound listed here: CNC(=O)CCC(=O)c1c(OC)cccc1OC
134 °C

Read the entry O=C(O)CCC1(NC(=O)c2ccc(Cl)c(Cl)c2)C(=O)N(CCCc2ccccc2)c2ccccc21 (centres undefined) and write its reported melting point.
242 to 243 °C

// fetch melting point given entry CC(C)OC(=O)C(C(=O)c1ccc2c(c1)OCO2)=C1SC=CS1
136 to 138 °C

Consider the compound c1ccc(COc2cccc(OCc3ccccc3)n2)cc1 . State its measured melting point.
74 °C

* * *

Below, each entry is listed with its recorded melting point.

Please review the following examples before continuing.
| molecule | result |
| --- | --- |
| COC(=O)C(C)=CC1C(C(=O)OC(C)(C)N2C(=O)C=CC2=O)C1(C)C (stereo not given) | 98.7 °C |
| CCNc1nc2ccccc2n2cnnc12 | 254 to 256 °C |
| Cc1oc(-c2ccccc2)nc1COc1ccc(OCc2oc(-c3ccccc3)nc2CO)cc1 | 143 to 144 °C |

Specify reported melting point for the molecule shown: C=C(C)c1cnn(-c2ccnc3cc(Cl)ccc23)c1
85.5 to 88 °C

Return reported melting point. Input molecule: Cc1ncnn1-c1ccc(N)cc1F
106 to 108 °C

Give the measured melting point for COC(=O)C=C(Nc1coc2cc(OC)ccc2c1=O)C(=O)OC
134 to 138 °C

State its melting point: O=C(c1c(F)cccc1F)N1COCN(c2ccc(S(=O)(=O)C(F)F)cc2F)C1=O
210 to 213 °C

Provide one value: measured melting point of N#Cc1c(N2CCN(C(=O)c3cccs3)CC2)c2ccccc2n(Cc2ccc(F)cc2)c1=O
258 °C

* * *

# melting point listing for each entry below

Below, each entry is followed by its recorded melting point result.
| compound | melting point |
| --- | --- |
| C=CCOc1ccccc1-c1ccc(C(N)=O)c(=O)[nH]1 | 210 to 212 °C |
| C#CCOc1cc(OCC#C)ncn1 | 74 °C |
| CC(=O)C(C(C)=O)=C1NC(=O)N(Cc2ccccc2)C1=O | 211 to 212 °C |
| NCCCCCCCCNc1nc(N)nc2c1ncn2C1C=CC(CO)C1 (configuration not stated) | 125 to 127 °C |
| CCOc1nn(Cc2cncc(OCc3nc(-c4ccccc4)oc3C)c2)cc1CCC(=O)O | 133 to 134 °C |

Assign melting point to the following record: O=C(O)C1=Cc2cc(SC(F)(F)F)ccc2SC1C(F)(F)F (configuration not stated)
129 to 132 °C

Please supply the value of reported melting point for the item FC(F)(F)C1(c2cc(Cl)cc(Cl)c2)CC(c2ccc(CCl)cc2)=NO1 (configuration not stated)
98 to 100 °C

Report measured melting point; entry is CCC(O)C1CCNCC1 (configuration not stated)
50 °C

Report melting point, nothing else, for this compound: COC(=O)CS(=O)(=O)Cc1cnc(OC)c([N+](=O)[O-])c1
137 to 140 °C

State its melting point for this compound: CC(=O)N1CCc2cc(S(=O)(=O)n3c(CCCC(=O)O)cc4cc(Cl)ccc43)ccc21
115 to 117 °C

Consider the compound COc1ccc(/C=C/C(=O)c2c(OC)cc(OC)cc2OC(=O)[C@H](C)NC(=O)OCc2ccccc2)cc1 . State its measured melting point.
163 to 164 °C

Provide melting point value for the following compound: COc1ccc(C(=O)Nc2c(Cl)cncc2Cl)cc1O
227 to 228 °C

Recall and state the measured melting point for COc1cc(C)c(O)c(CCCCCCCCCCO)n1 .
80 to 81 °C

Tell us which melting point value is on record for CN(C)CCCNc1ncc2c(n1)-c1ccccc1C(c1cccc(Br)c1)C2 (configuration not stated)
120 to 122 °C

For the compound FC(F)(F)c1ccc(-c2nccc(Oc3cccc(C(F)(F)F)c3)n2)cc1 , report melting point.
66 to 67 °C

Check the records and state melting point for C[C@H](CC(=O)c1ccc(C#N)cc1)C(=O)N1CCC(OCC(=O)OC(C)(C)C)CC1
142 °C

Identify melting point associated with the compound CCCc1cc(Cl)c2oc(C(=O)OCc3ccccc3)c(C)c2c1O
119 to 120 °C

Note down melting point recorded for CC1(C)CCC(C)(C)c2cc(OCc3ccc(CO)cc3)ccc21
108 to 109 °C

Indicate its recorded melting point; the compound in question is CCN1CN(c2cccc(C(F)(F)F)c2)c2ncccc2C1=O
108 to 109 °C

Using the record for Cc1cc(-c2ccc3c(=O)c(C(=O)O)cn(-c4ccc(F)cc4)c3c2)on1 , state its measured melting point.
281 to 282 °C

Let me know recorded melting point for CCCCCCCCCC[C@H](NP(=O)(c1ccccc1)c1ccccc1)c1ccccc1 , thanks.
95 to 96 °C

Return melting point for the following compound: CC(C)(O)C#Cc1ccc(-c2ccc(F)cc2)cc1
118 °C
